Values from patent US20230399395A1

biological target: human IL5 (human, UniProt P05113 20-134, biotinylated (IL5-biotin) in Examples 2, 5, 6, 9 and 11; site not stated); test: BLI
pKd: −log10 of the molar value.

{"BINDER": "Nb66 (VHH) VHH: QVQLQESGGGSVQAGGSLRLSCAASGYTVSSNMGWFRQAPGKEREGVAAIYPDGATYYADSVKGRFTISQDNAENTVYLQMNSLKPEDTAMYYCAADLAFNGLGTLALHGYWGQGTQVTVSS", "VALUE QUALIFIER": ">", "pKd": 12.00}
{"BINDER": "Nb25 (VHH) VHH: QVQLQESGGGSVQAGGSLRLSCAASEYTYSRYCMGWFRQVPGKEREGVATIDSDGSTSYADSVKGRFTISKDNAKNTLYLQMNSLKPEDTAMYYCAARYFYIATTGLRPCGEYEYNYWGQGTQVTVSS", "VALUE QUALIFIER": "=", "pKd": 9.31}
{"BINDER": "Nb21 (VHH) VHH: QVQLQESGGGSAQAGGSLKLSCVVSGYPYSGDYCMGWFRQAPGKEREGVAAFYTGGGSTYYADSVKGRFTTSQDNATSTFHLQMNSLKPEDTATYYCAADPWSVYGGSCGVKDPNPKAFNYWGQGTQVTVSS", "VALUE QUALIFIER": "=", "pKd": 9.20}
{"BINDER": "Nb92 (VHH) VHH: QVQLQESGGGLVQPGGSLRLSCAASGFTFSNYYMSWVRQAPGKGLEWVSSISSDGSNTYYEDSVKGRFTISRDNANNTLYLQMNSLKSEDTALYHCATDLYDDSWYDHWGQGTQVTVSS", "VALUE QUALIFIER": "=", "pKd": 9.41}
